Measured Kd, listed per entry.
- TARGET_SYSTEM: recombinant human CD38 (human, UniProt P28907 43-300, limits assumed)
- EXPERIMENTAL_PROTOCOL: SPR (Biacore 8K), antibody captured, antigen injected;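 further: antibodies held on a CM5 chip through anti-human IgG Fc, antigen in 3-fold serial dilutions, 1 min association then 10 min dissociation at 25 °C, 1:1 Langmuir global fit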
Provide only the numeric value, understood in nM.

Study these solved cases before continuing.
BINDER	UNIT_SYMBOL	Kd
18E4 (antibody, human IgG1, kappa, V domains shown, Rabbit-human chimeric anti-CD38: rabbit VH and VL on human IgG1 and kappa constant regions) VH: QSLEESGGDLVKPGASLTLTCTASGFSFNNYWICWIRQAPGKGLEWVACIYSPSGDIKYYANWAKGRFTVSKTSSTTVTLQMTSLTGADTATYFCARELSGSSYEGYFESWGPGTLVTVSS VL: AQVLTQTPSSVSAAVGGTVTINCQCSQSVYGHNWLAWYQHKPGQPPKLLMYRASNLASGVPSRFKGSGSGSQFTLTIGEVQSDDAATYYCQGYYNGGSYAFGGGTEVVVRR	nM	0.27
21H9 (antibody, human IgG1, kappa, V domains shown, Rabbit-human chimeric anti-CD38: rabbit VH and VL on human IgG1 and kappa constant regions) VH: QSLEESGGDLVKPGASLTLTCTASGFSATTYYYYMCWVRQAPGKGLEWIACTYTGDGATYYATWAKGRFTISKTSSTTVTLQMTSLTAADTATYFCARSADNSIYYGYFNLWGPGTLVTVSS VL: AFELTQTPFSVSEPVGGTVTINCQASENIYSSLAWYQQKPGQPPKLLIYRASTLASGVPSRFSGSGSGTEFTLTISGVQSDDAATYYCQTYYGSTSTGFTFGGGTEVVVKR	nM	0.004
22H6 (antibody, human IgG1, kappa, V domains shown, Rabbit-human chimeric anti-CD38: rabbit VH and VL on human IgG1 and kappa constant regions) VH: QSVEESGGRLVTPGTPLTLTCTVSGFSLSNNAISWVRQAPGKGLQWIGSIYGSGNTYYATWAKGRFTVSKTSTTVDLKINSPTTEDTATYFCAREGAGSSWGFNLWGPGTLVTVSS VL: AQVLTQTASSVSAAVGGTVTISCQSSESVYKNNYLSWYQQKPGQPLKCLIYSASTLASGVPSRFKGSGSGTQFTLTISDLESDDAATYYCAGGYSGNINGFGGGTEVVVKR	nM	65.4

Would you kindly look at the next entry?
Form field: reported Kd of 1E2 (antibody, human IgG1, kappa, V domains shown, Rabbit-human chimeric anti-CD38: rabbit VH and VL on human IgG1 and kappa constant regions) VH: QSVEESGGRLVTPGTPLTLTCTVSGIDLNSYAMGWVRQAPGKGLKYIGIMTSGGNIYYANWAKGRFTISKTSTTVDLRITSPTTEDTATYFCAREREFYGGGTSGSRLDLWGQGTLVTVSS VL: AYDMTQTPASVEAAVGGTVTIKCQASQSIYNFLNWYQQKPGQPPKLLIYYASTLAFGVPSRFKGSGSGTEYTLTISGVESADAATYYCQQGWNSGILDNSFGGGTEVVVKR 1.62
